- Target or system: NEDD8-activating enzyme E1 regulatory subunit (Homo sapiens)
- Sequence (Q13564 whole entry): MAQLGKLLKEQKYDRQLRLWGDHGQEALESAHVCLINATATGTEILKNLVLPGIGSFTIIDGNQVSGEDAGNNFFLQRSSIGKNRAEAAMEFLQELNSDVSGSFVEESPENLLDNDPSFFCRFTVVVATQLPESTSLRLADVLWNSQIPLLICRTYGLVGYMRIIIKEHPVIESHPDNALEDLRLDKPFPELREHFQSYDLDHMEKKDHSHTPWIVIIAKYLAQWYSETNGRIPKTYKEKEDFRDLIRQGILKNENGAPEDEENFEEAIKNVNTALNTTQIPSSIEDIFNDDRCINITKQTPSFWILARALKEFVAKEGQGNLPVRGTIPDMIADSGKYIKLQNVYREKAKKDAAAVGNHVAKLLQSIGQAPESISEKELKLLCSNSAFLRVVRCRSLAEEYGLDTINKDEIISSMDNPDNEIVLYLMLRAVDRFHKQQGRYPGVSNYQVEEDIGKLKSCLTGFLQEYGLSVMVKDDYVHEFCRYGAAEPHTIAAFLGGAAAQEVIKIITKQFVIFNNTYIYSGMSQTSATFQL
- Test summary: Inhibition of NAE (unknown origin)
Property label: pIC50
Scale: pIC50 equals -log10([C]), with [C] in mol/L.

Entry COC(=O)N1CCC2(CC1)C[C@H](Nc1ncnc3c1nnn3[C@@H]1C[C@@H](COS(N)(=O)=O)[C@@H](O)C1)c1ccccc12 , NEDD8-activating enzyme E1 regulatory subunit (Homo sapiens) data, pIC50 value: 9.30

----------
- Target or system: Ubiquitin-like modifier-activating enzyme 1 (Homo sapiens, UniProt P22314)
- Sequence (P22314 whole entry): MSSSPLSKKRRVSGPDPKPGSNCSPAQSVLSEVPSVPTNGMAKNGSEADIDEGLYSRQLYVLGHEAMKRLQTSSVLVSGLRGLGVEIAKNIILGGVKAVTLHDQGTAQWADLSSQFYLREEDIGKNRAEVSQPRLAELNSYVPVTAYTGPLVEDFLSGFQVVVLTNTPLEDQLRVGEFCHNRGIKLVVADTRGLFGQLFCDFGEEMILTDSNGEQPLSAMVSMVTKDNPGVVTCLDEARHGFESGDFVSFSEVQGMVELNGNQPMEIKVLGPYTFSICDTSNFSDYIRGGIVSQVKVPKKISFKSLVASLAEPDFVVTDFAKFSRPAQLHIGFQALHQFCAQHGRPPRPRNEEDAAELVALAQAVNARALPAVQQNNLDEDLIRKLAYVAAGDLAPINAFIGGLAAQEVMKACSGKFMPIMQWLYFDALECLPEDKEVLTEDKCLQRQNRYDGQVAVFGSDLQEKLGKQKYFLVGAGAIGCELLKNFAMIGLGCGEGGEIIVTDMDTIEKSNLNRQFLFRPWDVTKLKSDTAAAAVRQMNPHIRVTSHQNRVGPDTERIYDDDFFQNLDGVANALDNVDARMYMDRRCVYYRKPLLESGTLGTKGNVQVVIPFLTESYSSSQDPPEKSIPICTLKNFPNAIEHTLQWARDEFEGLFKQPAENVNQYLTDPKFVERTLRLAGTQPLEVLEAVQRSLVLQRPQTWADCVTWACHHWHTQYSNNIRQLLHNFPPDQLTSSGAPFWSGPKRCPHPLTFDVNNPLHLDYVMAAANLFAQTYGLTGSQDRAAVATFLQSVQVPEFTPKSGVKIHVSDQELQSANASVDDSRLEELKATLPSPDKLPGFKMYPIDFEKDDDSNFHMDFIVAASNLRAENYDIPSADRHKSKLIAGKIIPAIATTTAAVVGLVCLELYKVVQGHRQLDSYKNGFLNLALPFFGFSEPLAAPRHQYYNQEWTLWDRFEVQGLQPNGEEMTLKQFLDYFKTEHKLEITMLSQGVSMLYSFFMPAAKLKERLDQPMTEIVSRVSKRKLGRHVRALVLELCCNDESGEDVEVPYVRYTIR
- Test summary: Inhibition of UAE (unknown origin)
Property label: IC50 (nM)
Hi! Could you send only the number? It should be in nM, unit omitted.

// IC50 value for COC(=O)N1CCC2(CC1)C[C@H](Nc1ncnc3c1nnn3[C@@H]1C[C@@H](COS(N)(=O)=O)[C@@H](O)C1)c1ccccc12 : 66
